B1: NLV3 TCR beta chain (CDR3β only) (parent)
chain: ASSPTGGSPSPLH

Variants of: B1
Test: T-Switch: Jurkat TCRβ−/− cells expressing a CDR3 saturation-mutagenesis library, stained with two peptide-HLA-A*02:01 tetramers (original and novel peptide) plus anti-CD3, FACS-sorted into four gates, gDNA sequenced
Details: with both tetramers (double-negative gate, binds neither): HLA-A*02:01 with … and with …, tetramers 1 µg/mL, 30 min on ice, SP, DP and SW gates expanded about 10 days between rounds ('two to three rounds of selection' in the Methods), gate DN: OPPOSITE: higher = more of the variant in the gate that binds neither peptide = LESS binding (or no expression; inferred). Fold enrichment of the CDR3 variant in one FACS gate of a two-tetram, unresolved parent, parent is a CDR3 fragment, scale: fold enrichment, numbering: sequential-on-construct, sequence starts at 1
In this scheme, each record receives a class according to its enrichment; the ranges are low range: < 0.7; mid range: ≥ 0.7 and < 0.9; high range: ≥ 0.9

| mut | class.label |
| --- | --- |
| […] (CDR3 as printed); S8C derived by comparing it with the table's wild-type CDR3 ASSPTGGSPSPLH | low range |
| […] (CDR3 as printed); P9T derived by comparing it with the table's wild-type CDR3 ASSPTGGSPSPLH | high range |
| […] (CDR3 as printed); A1V derived by comparing it with the table's wild-type CDR3 ASSPTGGSPSPLH | mid range |
| […] (CDR3 as printed); H13N derived by comparing it with the table's wild-type CDR3 ASSPTGGSPSPLH | low range |
| […] (CDR3 as printed); L12D derived by comparing it with the table's wild-type CDR3 ASSPTGGSPSPLH | low range |
| […] (CDR3 as printed); G7A derived by comparing it with the table's wild-type CDR3 ASSPTGGSPSPLH | low range |
| […] (CDR3 as printed); P9V derived by comparing it with the table's wild-type CDR3 ASSPTGGSPSPLH | low range |
| […] (CDR3 as printed); S8N derived by comparing it with the table's wild-type CDR3 ASSPTGGSPSPLH | high range |
| […] (CDR3 as printed); S2A derived by comparing it with the table's wild-type CDR3 ASSPTGGSPSPLH | low range |
| […] (CDR3 as printed); H13D derived by comparing it with the table's wild-type CDR3 ASSPTGGSPSPLH | mid range |
| […] (CDR3 as printed); G6S derived by comparing it with the table's wild-type CDR3 ASSPTGGSPSPLH | low range |
| […] (CDR3 as printed); T5L derived by comparing it with the table's wild-type CDR3 ASSPTGGSPSPLH | low range |
| […] (CDR3 as printed); G7F derived by comparing it with the table's wild-type CDR3 ASSPTGGSPSPLH | high range |
| […] (CDR3 as printed); S8G derived by comparing it with the table's wild-type CDR3 ASSPTGGSPSPLH | mid range |
| […] (CDR3 as printed); P9D derived by comparing it with the table's wild-type CDR3 ASSPTGGSPSPLH | high range |
| […] (CDR3 as printed); P9W derived by comparing it with the table's wild-type CDR3 ASSPTGGSPSPLH | high range |
| […] (CDR3 as printed); S10K derived by comparing it with the table's wild-type CDR3 ASSPTGGSPSPLH | high range |
| […] (CDR3 as printed); G6C derived by comparing it with the table's wild-type CDR3 ASSPTGGSPSPLH | mid range |
| […] (CDR3 as printed); P9M derived by comparing it with the table's wild-type CDR3 ASSPTGGSPSPLH | high range |
